Molecular target: T1, wild type full length EGFR purified from A431 cells (human, UniProt P00533 25-1210)
T1 construct: mature; Bought; coated on ELISA wells; also called full length EGFR receptor antigen; Sigma E3641
Assay: competition ELISA, competitor Ab-10
Design: concentration or dose not given beside the values
Assign t to entries whose % inhibition meets or exceeds 20%; assign f to the rest.

Qu. // inclusive: % inhibition at least 20%? input: antibody 1320 (antibody, human IgG1, kappa, V domains shown, Chimeric IgG1 kappa) VH: QVQLQQPGAELVKPGASMKLSCKASGYTFTNYWMHWVKQRPGQGLEWIGEINPSNGRTNYNEKFKSKATLTVDKSSSTAYMQLSSLTSEDSGVYYCAKGGNYYDYDWDYWGQGTTLTVSS VL: DIQMTQTTSSLSASLGDRVTISCSASQDISNYLNWYQQKPDGTVKLLIYHTSTLHSGVPSRFSGSGSGTDYSLTISNLEPEDIATYYCQQYSKLPWTFGGGTKLEIKR
Ans. f

Qu. What about antibody 1260 (antibody, human IgG1, kappa, V domains shown, Chimeric IgG1 kappa) VH: QVQLKESGPGLVAPSQSLSITCTVSGFSLTTYGVHWVRQPPGKGLEWLGVIWAGGSTNYNSALMSRLSIKKDNSKSQVFLKMNSLQTDDTAMYYCARAYGYNFDYWGQGTTLTVSS VL: DIQMTQTTSSLSASLGDRVTISCSASQGITNYLNWYQQKPDGTVKLLIYYSSSLHSGVPSRFSGSGSGTDYSLTISNLEPEDIATYYCQQYSEIPYTFGGGTKLELKR ?
Ans. t

Qu. What about antibody 1024 (antibody, human IgG1, kappa, V domains shown, Chimeric IgG1 kappa) VH: QVQLQQPGAELVEPGGSVKLSCKASGYTFTSHWMHWVKQRPGQGLEWIGEINPSSGRNNYNEKFKSKATLTVDKSSSTAYMQFSSLTSEDSAVYYCVRYYGYDEAMDYWGQGTSVTVSS VL: DIVMTQAAFSNPVTLGTSASISCRSSKSLLHSNGITYLYWYLQKPGQSPQLLIYQMSNLASGVPDRFSSSGSGTDFTLRISRVEAEDVGVYYCAQNLELPYTFGGGTKLEIKR ?
Ans. t

Qu. What about antibody 1030 (antibody, human IgG1, kappa, V domains shown, Chimeric IgG1 kappa) VH: EVQLVESGGGLVKPGGSLKLSCAASGFTFSSYALSWVRQTPERRLEWVASISGVGSTYFPDSVKGRFTMSRDNARNILYLQMSSLRSEDTAMYYCARGSDGYFYAMDYWGQGTSVTVSS VL: DIVLTQSPASLAVSLGQRATISCRASKSVSTSGYSFMHWYQLKPGQPPKLLIYLASNLESGVPARFSGSGSGTDFTLNIHPVEEEDAATYYCQHSREFPLTFGGGTKLEIKR ?
Ans. t

Qu. What about antibody 1042 (antibody, human IgG1, kappa, V domains shown, Chimeric IgG1 kappa; RA- left out of the VH entry) VH: QVQLQQPGAELVKPGASVKLSCKASGYTFTSHWMHWVQQRPGQGLEWIGEIHPSNGRTNYNEKFKNKATLTVDKSPSTAYMQLSSLTSEDSAVYYCARYYGYDDAMDYWGQGTSVTVSS VL: DIVMTQAAFSNPVTLGTSASISCRSSKSLLHSNGITYLYWYLQKPGQSPQLLIYQMSNLASGVPDRFSSSGSRTDFTLRISRVEAEDVGVYYCAQNLELPYTFGGGTKLEIKR ?
Ans. f
